These entries and their values trace back to patent US20260097037A1.

Test system: Human GLP-1 receptor stably expressing cells (hGLP-1R/CHO-K1 cells) (Homo sapiens, UniProt P43220)
Construct: expressed in transfected cells
Sequence (P43220 24-463): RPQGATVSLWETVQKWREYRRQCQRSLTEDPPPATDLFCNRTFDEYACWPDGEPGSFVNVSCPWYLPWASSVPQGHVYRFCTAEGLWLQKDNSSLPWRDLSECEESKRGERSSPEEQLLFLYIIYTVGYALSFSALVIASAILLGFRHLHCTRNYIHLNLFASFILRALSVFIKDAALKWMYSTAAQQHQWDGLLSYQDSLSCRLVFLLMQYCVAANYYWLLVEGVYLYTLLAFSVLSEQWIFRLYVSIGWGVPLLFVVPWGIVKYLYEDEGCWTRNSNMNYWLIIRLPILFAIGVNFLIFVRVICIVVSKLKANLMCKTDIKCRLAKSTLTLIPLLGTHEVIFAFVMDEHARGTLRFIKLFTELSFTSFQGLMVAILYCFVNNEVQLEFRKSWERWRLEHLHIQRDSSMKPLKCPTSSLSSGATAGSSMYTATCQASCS
Protocol notes: Measurement of GLP-1 receptor agonist activity (cAMP assay)
Assay type: cell-based
Assay setup: CHO-K1, maximum effect; cAMP with 2 nM human GLP-1 (7-36) = 100%, DMSO only = 0%; read-out: Emax
Record form. Attribute: Emax. Fill in for each entry.

Below: 2 molecules and their reported Emax.
Sample smiles: C[C@H]1c2nc(NCc3ccc(Cl)cc3Cl)c(C(F)(F)F)cc2CCN1Cc1nc2c(F)cc(C(=O)O)cc2n1C[C@@H]1CCO1
Experimental value: 109%

Sample smiles: COc1cc(C(=O)O)cc2c1nc(CN1CCc3cc(Cl)c(OCc4c(F)cc(F)cc4F)nc3[C@@H]1C)n2C[C@@H]1CCO1
Experimental value: 118%

response.value for C[C@H]1c2nc(OCc3ccc(C#N)cc3F)c(Cl)cc2CCN1Cc1nc2ccc(C(=O)O)nc2n1C[C@@H]1CCO1 (field: Emax) = 126%

* * *

Test system: Human GLP-1 receptor stably expressing cells (hGLP-1R/CHO-K1 cells) (Homo sapiens, UniProt P43220)
Protocol notes: Measurement of GLP-1 receptor agonist activity (cAMP assay)
Assay setup: increase in cAMP concentration in hGLP-1R/CHO-K1 cells, 37° C. 1 hour
Mark fulfilled only when EC50 stays strictly below 0.6 nM. Values equal to the cut-off are not fulfilled.

Ask: Does the reported EC50 of C[C@H]1c2nc(OCc3ccc(Cl)cc3Cl)c(C(F)F)cc2CCN1Cc1nc2ccc(C(=O)O)nc2n1C[C@@H]1CCO1 [Compound I-100] stay below 0.6 nM?
Result: fulfilled

Ask: Answer whether the molecule C[C@H]1c2nc(OCc3ccc(Cl)cc3F)c(C(F)(F)F)cc2CCN1Cc1nc2c(-c3cccnc3)cc(C(=O)O)cc2n1C[C@@H]1CCO1 [Compound I-190] has EC50 strictly less than 0.6 nM
Result: not fulfilled

Ask: In the record for C[C@H]1c2nc(OCc3cc(F)c(Cl)cc3F)c(C#N)cc2CCN1Cc1nc2c(Cl)cc(C(=O)O)cc2n1C[C@@H]1CCO1 [Compound I-188] , is EC50 less than 0.6 nM?
Result: fulfilled

Ask: is_below(EC50, 0.6 nM) for C[C@H]1c2c(cc(C(F)(F)F)c3c2O[C@](C)(c2ccc(Cl)cn2)O3)CCN1Cc1nc2ccc(C(=O)O)cc2n1C[C@@H]1CCO1 [Compound I-026] ?
Result: not fulfilled

Ask: Strictly below 0.6 nM: is that where EC50 of Cc1ccc(COc2nc3c(cc2Cl)CCN(Cc2nc4ccc(C(=O)O)cc4n2C[C@@H]2CCO2)[C@H]3C)cc1 [Compound I-018] sits?
Result: fulfilled

* * *

Test system: Human GLP-1 receptor stably expressing cells (hGLP-1R/CHO-K1 cells) (Homo sapiens, UniProt P43220)
Construct: expressed in transfected cells
Protocol notes: Measurement of GLP-1 receptor agonist activity (cAMP assay)
Format: cell-based
Assay setup: CHO-K1, maximum effect; cAMP with 2 nM human GLP-1 (7-36) = 100%, DMSO only = 0%; read-out: Emax
Procedure: Test Example 1: Measurement of GLP-1 Receptor Agonist Activity Human GLP-1 receptor stably expressing cells (hGLP-1R/CHO-K1 cells) are cultured in an a-MEM medium (Sigma) containing 10% FBS (Hyclone), 2% GlutaMAX (Gibco), 1% G418 (Nacalai Tesque), and 1% Penicillin-Streptomycin Mixed Solution (Sigma) at 37° C. under 5% CO2 conditions, and recovered by treating a 10 fold diluted 5.0 g/1-trypsin/5.3 mmol/1-EDTA solution (Nacalai Tesque) and cryopreserved. […]
Hi there, I'd appreciate the recorded Emax for every entry that follows.
One number for each entry, in %.

Molecule: C[C@H]1c2nc(OCc3ccc(C#N)c4ccoc34)c(C(F)(F)F)cc2CCN1Cc1nc2ccc(C(=O)O)cc2n1C[C@@H]1CCO1 [Compound I-143]
Emax / %: 129
--
Molecule: C[C@H]1c2nc(OCc3ccc(Cl)cc3F)c(Cl)cc2CCN1Cc1nc2ccc(C(=O)O)c(F)c2n1C[C@@H]1CCO1 [Compound I-045]
Emax / %: 131
--
Molecule: C[C@H]1c2cc(OCc3c(F)cc(Cl)cc3F)c(Cl)cc2CCN1Cc1nc2ccc(C(=O)O)c(F)c2n1C[C@@H]1CCO1 [Compound I-043]
Emax / %: 118
--
Molecule: C[C@H]1c2nc(OCc3ccc(Cl)c4ccoc34)c(C#N)cc2CCN1Cc1nc2c(Cl)cc(C(=O)O)cc2n1C[C@@H]1CCO1 [Compound I-180]
Emax / %: 111
--
Molecule: COc1cc(C(=O)O)cc2c1nc(CN1CCc3cc(C(F)F)c(OCc4c(F)cc(Cl)cc4F)nc3[C@@H]1C)n2C[C@@H]1CCO1 [Compound I-134]
Emax / %: 128

With those in mind, consider the next molecule.
Notebook: C[C@H]1c2nc(NCc3cc(F)c(Cl)cc3F)c(C(F)(F)F)cc2CCN1Cc1nc2c(F)cc(C(=O)O)cc2n1C[C@@H]1CCO1 [Compound I-175] , Emax read as 107

* * *

Test system: Human GLP-1 receptor stably expressing cells (hGLP-1R/CHO-K1 cells) (Homo sapiens)
Protocol notes: Measurement of GLP-1 receptor agonist activity (cAMP assay)
Assay setup: increase in cAMP concentration in hGLP-1R/CHO-K1 cells, 37° C. 1 hour
Consider the following molecules; for each one, report its EC50.
One number for each entry, in nM.

Sample smiles: C[C@H]1c2c(cc(C(F)(F)F)c3c2O[C@@](C)(c2ccc(Cl)cc2F)O3)CCN1Cc1nc2ccc(C(=O)O)cc2n1C[C@@H]1CCO1
EC50, nM: 0.903
//
Sample smiles: C[C@H]1c2nc(OCc3ccc(F)cc3F)c(Cl)cc2CCN1Cc1nc2c(F)cc(C(=O)O)cc2n1C[C@@H]1CCO1
EC50, nM: 0.122
//
Sample smiles: C[C@H]1c2nc(NCc3ccc(Cl)cc3F)c(C(F)(F)F)cc2CCN1Cc1nc2c(Cl)cc(C(=O)O)cc2n1C[C@@H]1CCO1
EC50, nM: 0.0738

Continue with the molecule presented below.
Test item Cc1ccc(COc2nc3c(cc2C(F)F)CCN(Cc2nc4ccc(C(=O)O)cc4n2C[C@@H]2CCO2)[C@H]3C)cc1 ; Human GLP-1 receptor stably expressing cells (hGLP-1R/CHO-K1 cells) (Homo sapiens); reported EC50 was 0.417
